Catalogue of hIP1 GRPR EC50 values
assay.system: human GRP receptor (human, UniProt P30550 1-384)
Sequence (P30550 whole entry): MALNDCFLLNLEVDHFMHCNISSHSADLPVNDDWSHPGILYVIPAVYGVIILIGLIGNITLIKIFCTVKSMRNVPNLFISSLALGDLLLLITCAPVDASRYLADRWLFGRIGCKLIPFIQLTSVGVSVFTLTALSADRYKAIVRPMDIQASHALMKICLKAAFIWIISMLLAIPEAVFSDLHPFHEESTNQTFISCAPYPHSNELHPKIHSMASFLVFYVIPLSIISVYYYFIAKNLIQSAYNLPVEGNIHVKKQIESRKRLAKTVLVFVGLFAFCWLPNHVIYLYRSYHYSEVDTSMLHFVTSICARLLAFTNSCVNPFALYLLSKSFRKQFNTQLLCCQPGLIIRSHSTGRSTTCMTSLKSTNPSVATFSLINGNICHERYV
assay.overview: cell-based or functional assay
Starred links: 1 amine or outer side, 2 acyl side, 3 side chain; linkers in the order of their positions; H or OH if unused. Non-standard residues stand in square brackets, D forms with d. No end group written: not given here. *: point of attachment. Trp(7-Me) = Cc1cccc2c(C[C@H](N)C(=O)O)c[nH]c12; C20 diacid = O=C(O)CCCCCCCCCCCCCCCCCCC(=O)*; d(γGlu) = O=C(O)[C@@H](CCC(=O)[*:2])N[*:1]; C18 diacid = O=C(O)CCCCCCCCCCCCCCCCC(=O)*; γGlu = O=C(O)[C@H](CCC(=O)[*:2])N[*:1]; Palmitoyl = CCCCCCCCCCCCCCCC(=O)*; 3Pal = N[C@@H](Cc1cccnc1)C(=O)O; Nle = CCCC[C@H](N)C(=O)O; AEEA = NCCOCCOCC(=O)O; Sar = CNCC(=O)O

{"columns": ["binder", "unit.of.measurement", "qualifier", "hIP1 GRPR EC50"],
 "data": [
  ["{C18 diacid}-[γGlu][AEEA][AEEA]GNHWAV[dA]HL[Nle]R-NH2 (SMILES CCCC[C@H](NC(=O)[C@H](CC(C)C)NC(=O)[C@H](Cc1c[nH]cn1)NC(=O)[C@@H](C)NC(=O)[C@@H](NC(=O)[C@H](C)NC(=O)[C@H](Cc1c[nH]c2ccccc12)NC(=O)[C@H](Cc1c[nH]cn1)NC(=O)[C@H](CC(N)=O)NC(=O)CNC(=O)COCCOCCNC(=O)COCCOCCNC(=O)CC[C@H](NC(=O)CCCCCCCCCCCCCCCCC(=O)O)C(=O)O)C(C)C)C(=O)N[C@@H](CCCNC(=N)N)C(N)=O) [Peptide 114]", "nM", ">", 10000],
  ["{C20 diacid}-[γGlu]GRHWAV[dA]HL[Nle] [Peptide 162]", "nM", "=", 19.6],
  ["Palmitoyl-[γGlu][AEEA][AEEA][AEEA][AEEA]GN[3Pal][Trp(7-Me)]AV[dA]HL[Nle]-NH2 (SMILES CCCCCCCCCCCCCCCC(=O)N[C@@H](CCC(=O)NCCOCCOCC(=O)NCCOCCOCC(=O)NCCOCCOCC(=O)NCCOCCOCC(=O)NCC(=O)N[C@@H](CC(N)=O)C(=O)N[C@@H](Cc1cccnc1)C(=O)N[C@@H](Cc1c[nH]c2c(C)cccc12)C(=O)N[C@@H](C)C(=O)N[C@H](C(=O)N[C@H](C)C(=O)N[C@@H](Cc1c[nH]cn1)C(=O)N[C@@H](CC(C)C)C(=O)N[C@@H](CCCC)C(N)=O)C(C)C)C(=O)O) [Peptide 91]", "nM", "=", 3.72],
  ["{C18 diacid}-[γGlu][AEEA][AEEA]GAHW[dA]V[dA]HL[Nle][Sar]-NH2 (SMILES CCCC[C@H](NC(=O)[C@H](CC(C)C)NC(=O)[C@H](Cc1c[nH]cn1)NC(=O)[C@@H](C)NC(=O)[C@@H](NC(=O)[C@@H](C)NC(=O)[C@H](Cc1c[nH]c2ccccc12)NC(=O)[C@H](Cc1c[nH]cn1)NC(=O)[C@H](C)NC(=O)CNC(=O)COCCOCCNC(=O)COCCOCCNC(=O)CC[C@H](NC(=O)CCCCCCCCCCCCCCCCC(=O)O)C(=O)O)C(C)C)C(=O)N(C)CC(N)=O) [Peptide 128]", "nM", "=", 1060],
  ["Palmitoyl-[d(γGlu)][AEEA][AEEA]GNH[Trp(7-Me)]AV[dA]HL[Nle]-NH2 (SMILES CCCCCCCCCCCCCCCC(=O)N[C@H](CCC(=O)NCCOCCOCC(=O)NCCOCCOCC(=O)NCC(=O)N[C@@H](CC(N)=O)C(=O)N[C@@H](Cc1c[nH]cn1)C(=O)N[C@@H](Cc1c[nH]c2c(C)cccc12)C(=O)N[C@@H](C)C(=O)N[C@H](C(=O)N[C@H](C)C(=O)N[C@@H](Cc1c[nH]cn1)C(=O)N[C@@H](CC(C)C)C(=O)N[C@@H](CCCC)C(N)=O)C(C)C)C(=O)O) [Peptide 13]", "nM", "=", 1.08]
]}

Data provenance is patent US20260176319A1.
